- measurement_target: human delta-like ligand 3 (DLL3) on SHP77 cells (human) (UniProt Q9NYJ7)
- Sequence (Q9NYJ7 27-618, stated change not applied): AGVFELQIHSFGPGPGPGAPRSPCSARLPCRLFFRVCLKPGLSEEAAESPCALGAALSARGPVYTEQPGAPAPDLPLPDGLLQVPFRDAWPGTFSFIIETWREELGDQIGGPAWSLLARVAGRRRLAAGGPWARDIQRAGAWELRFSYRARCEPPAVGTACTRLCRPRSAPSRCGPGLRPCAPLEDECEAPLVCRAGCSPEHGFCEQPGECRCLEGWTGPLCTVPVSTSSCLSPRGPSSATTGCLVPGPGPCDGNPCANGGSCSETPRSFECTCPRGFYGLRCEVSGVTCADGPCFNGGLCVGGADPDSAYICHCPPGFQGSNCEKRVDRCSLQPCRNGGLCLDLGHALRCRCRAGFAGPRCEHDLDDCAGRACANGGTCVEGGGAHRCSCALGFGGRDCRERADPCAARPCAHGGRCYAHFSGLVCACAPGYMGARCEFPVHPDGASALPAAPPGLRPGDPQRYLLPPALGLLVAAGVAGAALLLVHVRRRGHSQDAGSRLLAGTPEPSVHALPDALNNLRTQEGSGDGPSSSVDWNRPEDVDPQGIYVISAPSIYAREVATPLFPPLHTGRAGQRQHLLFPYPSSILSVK
- experiment_description: FACS on SHP77 cells
We begin with a simple list: items and their reported MFI at 0.0064 nM.
Please respond with the number in MFI and leave the unit unwritten.

## Task What value of measured MFI at 0.0064 nM is listed for Hab008L3H2a-hFc (scFv, part only; not given: VL-VH linker and human IgG1 Fc, V domains shown, not shown: another chain or arm of the molecule; a dimerising Fc or GST; small tags and cut ends) VL: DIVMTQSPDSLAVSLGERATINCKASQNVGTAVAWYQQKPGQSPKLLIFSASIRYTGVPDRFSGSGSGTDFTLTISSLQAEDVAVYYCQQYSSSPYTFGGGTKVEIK VH: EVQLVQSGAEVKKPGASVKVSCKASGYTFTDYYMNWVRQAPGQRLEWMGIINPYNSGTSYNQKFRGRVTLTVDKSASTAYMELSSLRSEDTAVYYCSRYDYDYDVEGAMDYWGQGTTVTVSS ?
## Result 117

## Task What value of measured MFI at 0.0064 nM is listed for Hab015VL5VH5a-hFc (scFv, part only; not given: scFv linker and human IgG1 Fc, V domains shown, not shown: another chain or arm of the molecule; a dimerising Fc or GST; small tags and cut ends) VL: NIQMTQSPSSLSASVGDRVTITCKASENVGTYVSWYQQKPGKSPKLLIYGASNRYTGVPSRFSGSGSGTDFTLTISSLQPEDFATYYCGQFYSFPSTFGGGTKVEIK VH: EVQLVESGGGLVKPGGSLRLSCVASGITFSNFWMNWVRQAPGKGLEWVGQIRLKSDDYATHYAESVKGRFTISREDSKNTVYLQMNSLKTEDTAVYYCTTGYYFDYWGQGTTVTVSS ?
## Result 122

## Task What value of measured MFI at 0.0064 nM is listed for Hab008L1H5-hFc (scFv, part only; not given: VL-VH linker and human IgG1 Fc, V domains shown, not shown: another chain or arm of the molecule; a dimerising Fc or GST; small tags and cut ends) VL: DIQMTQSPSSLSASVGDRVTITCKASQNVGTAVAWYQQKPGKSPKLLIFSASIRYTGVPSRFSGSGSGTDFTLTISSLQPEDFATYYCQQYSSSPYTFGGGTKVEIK VH: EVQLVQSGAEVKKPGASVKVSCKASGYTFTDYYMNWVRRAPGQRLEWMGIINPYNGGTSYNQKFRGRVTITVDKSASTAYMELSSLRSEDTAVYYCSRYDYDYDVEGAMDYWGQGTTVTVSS ?
## Result 120
